Recorded INHIBITION for the following compounds
# Test system: Plasmodium berghei
# assay.method.text: Screen against P. berghei liver stage (PbLuc), transformed with Luciferase, at 10uM
# Format: functional, HepG2
# condition.set: tested at 10 uM
Hit rate of the full screen: of about 69,000 compounds, about 8,600 (12%) showed an effect of 50% or more. What follows is part of a selection rich in strong results, with near analogues and random picks from the rest.
# value in %; strip the unit string

Q. Find the recorded INHIBITION belonging to "O=S(=O)(c1cccc(F)c1)N1CC[C@H]2[C@H]1CCN2c1ncccn1" and report it.
A. -12.4

Q. And "COc1cccc(S(=O)(=O)CCN2CCC3(CC2)OCCO3)c1" ?
A. 60

Q. And "O=C(c1ncccn1)N1C[C@H]2CCC[C@@]2(COCc2cccnc2)C1" ?
A. 45.5

Q. And "O=C(C1CCOCC1)N1C[C@H]2CCC[C@@]2(COCc2ccccn2)C1" ?
A. 53

Q. And "Cc1cc(CNS(C)(=O)=O)ccc1N(C)C" ?
A. 25.5

Q. And "CCc1[nH]nc(NC(=O)c2ccc(Cl)cn2)c1C" ?
A. -61.3

Q. And "Cn1cc(Cl)c(C(=O)N2CCc3nc4sccc4c(=O)n3CC2)n1" ?
A. -9.32

Q. And "c1ccc(COC[C@@]23CCC[C@@H]2CN(Cc2ccccn2)C3)nc1" ?
A. -7.94
